Listed below: TGI values for each entry.
Tested on: SK-MEL-28 melanoma
experiment_summary: NCI tumour cell line growth inhibition, 48 h

Oc1c(CN2CCCC2)ccc2cccnc12	> 100 µM
Fc1ccc(-c2sc(-c3ccsc3)cc2Cc2ccsc2)cc1	> 10 µM
Cc1ccc(C)c2c1C(=O)N(c1ccc(F)cc1F)C2=O	> 100 µM
CN(C)CN1CSC(=S)N(CN(C)C)C1	> 100 µM

Turning now to a further compound:
Bench note: what TGI did O=C(O)CN(c1ccccc1)S(=O)(=O)c1cccc([N+](=O)[O-])c1 show?
> 100 µM

----------
Listed below: TGI values for each entry.
Tested on: NCI-H460 lung
experiment_summary: NCI tumour cell line growth inhibition, 48 h

O=C1c2cc(I)ccc2N2CCN=C2N1Cc1ccccc1	> 100 µM
COC(=O)c1cc(NC(=O)c2cc(NC(=O)c3cc([N+](=O)[O-])n(C)c3)cn2C)cn1C	> 100 µM
Cc1cc(=O)[nH]c(CNC(=O)c2ccc3ccccc3c2)n1	> 100 µM

Bench note: what TGI did CCn1c(-c2nonc2N)nc2c(C#CC(C)(C)O)ncc(OC3CCNCC3)c21 show?
> 25 µM

Bench note: what TGI did COc1ccc(-n2c(SC(CN3CCOCC3)CN3CCCC3=O)nc3ccccc3c2=O)cc1 (stereo unspecified) show?
> 100 µM

Bench note: what TGI did CC(C)(C)NC1=NC(C(F)(F)F)(C(F)(F)F)NC(=O)N1 show?
> 100 µM

----------
Listed below: TGI values for each entry.
Tested on: DMS 273 small cell lung
experiment_summary: NCI tumour cell line growth inhibition, 48 h

CCC12CCCN(Cc3ccccc3)C1c1c(n(C)c3ccccc13)C(CO)C2 (stereo not drawn)	89.7 µM

Record O=C(CCC(=O)Nc1ccc(Cl)c(Cl)c1)CC(=O)c1ccc2ccccc2c1 : what is its TGI with DMS 273 small cell lung?
> 100 µM

Record COC(=O)C1CSC(c2csc(CCN)n2)=N1 (stereo not drawn) : what is its TGI with DMS 273 small cell lung?
> 100 µM

----------
Listed below: log10 of TGI values for each entry.
Tested on: RPMI-8226 leukemia
experiment_summary: NCI tumour cell line growth inhibition, 48 h
Recall that a logarithmic scale is used here: each number is log10 of TGI in µM.

Bench note: what log10 of TGI did Cc1cc2cc3cc(C)c(N)cc3nc2cc1N show?
0.12

Bench note: what log10 of TGI did CC(c1cc(Cl)ccc1O)c1cc(Cl)ccc1O show?
1.00

Bench note: what log10 of TGI did Cc1ccc(S(=O)(=O)N2CCC[C@@H]2C(=O)O[C@@H]2CCC3CC=CC32)cc1 (some centres not stated) show?
1.79

Bench note: what log10 of TGI did CCC(C)(C)c1cc(O)c(C(C)(C)CC)cc1O show?
0.96

Bench note: what log10 of TGI did Oc1cc(N2CC2)c(O)cc1N1CC1 show?
0.99

Bench note: what log10 of TGI did Cc1ccc([P+](Cc2ccccc2)(c2ccccc2)c2ccccc2)cc1 show?
0.82

Bench note: what log10 of TGI did COc1ccc2nc3c([N+](=O)[O-])ccc(NCCN(C)C)c3c(N)c2c1 show?
-0.25

Bench note: what log10 of TGI did COc1cc(C2c3cc4c(cc3OC(NNc3ccccc3)C2C)OCO4)cc(OC)c1OC (configuration not stated) show?
1.50

Bench note: what log10 of TGI did Clc1ccc(CCNC2(c3cc4ccccc4s3)CCCCC2)cc1Cl show?
1.51
